# Tested on: Erythrocyte
# protocol summary: Hemolytic activity in mouse red blood cell assessed as hemolysis incubated for 1 hr
# Format: toxicity, cell-based
reported metric: MHC (µM)
Give bare numbers, in µM.

Look over these answered cases.
compound	reported metric	endpoint result
CCC(C)CCC(=O)N[C@H](CCCN)C(=O)N[C@H](Cc1ccc(O)cc1)C(=O)N[C@H](Cc1c[nH]c2ccccc12)C(=O)N[C@H](CCCN)C(=O)N[C@@H](CCCN)C(=O)NCC(=O)N[C@H](CCCN)C(=O)N[C@@H](Cc1c[nH]c2ccccc12)C(=O)N[C@@H]1C(=O)N[C@@H]([C@@H](C)CC)C(=O)NCC(=O)N[C@@H](CO)C(=O)O[C@@H]1C (mixture of isomers)	MHC	128
CCC(C)CCC(=O)N[C@H](CC(N)=O)C(=O)N[C@H](Cc1ccc(O)cc1)C(=O)N[C@H](Cc1c[nH]c2ccccc12)C(=O)N[C@H](CCN)C(=O)N[C@@H](CCN)C(=O)NCC(=O)N[C@H](CCN)C(=O)N[C@@H](Cc1c[nH]c2ccccc12)C(=O)N[C@@H]1C(=O)N[C@@H]([C@@H](C)CC)C(=O)NCC(=O)N[C@@H](CO)C(=O)O[C@@H]1C (stereo not given in full)	MHC	128

Okay, here is my list. What is MHC for each of these?
1. CCC(C)CCC(=O)N[C@H](CC(N)=O)C(=O)N[C@H](Cc1ccc(-c2ccccc2)cc1)C(=O)N[C@H](Cc1c[nH]c2ccccc12)C(=O)N[C@H](CCCN)C(=O)N[C@@H](CCCN)C(=O)NCC(=O)N[C@H](CCCN)C(=O)N[C@@H](Cc1c[nH]c2ccccc12)C(=O)N[C@@H]1C(=O)N[C@@H]([C@@H](C)CC)C(=O)NCC(=O)N[C@@H](CO)C(=O)O[C@@H]1C (mixture of isomers)
2. CCC(C)CCC(=O)N[C@H](CC(N)=O)C(=O)N[C@H](Cc1ccc2ccccc2c1)C(=O)N[C@H](Cc1c[nH]c2ccccc12)C(=O)N[C@H](CCCN)C(=O)N[C@@H](CCCN)C(=O)NCC(=O)N[C@H](CCCN)C(=O)N[C@@H](Cc1c[nH]c2ccccc12)C(=O)N[C@@H]1C(=O)N[C@@H]([C@@H](C)CC)C(=O)NCC(=O)N[C@@H](CO)C(=O)O[C@@H]1C (mixture of isomers)
3. CCC(C)CCC(=O)N[C@H](CC(N)=O)C(=O)N[C@H](Cc1ccc(N)cc1)C(=O)N[C@H](Cc1c[nH]c2ccccc12)C(=O)N[C@H](CCCN)C(=O)N[C@@H](CCCN)C(=O)NCC(=O)N[C@H](CCCN)C(=O)N[C@@H](Cc1c[nH]c2ccccc12)C(=O)N[C@@H]1C(=O)N[C@@H]([C@@H](C)CC)C(=O)NCC(=O)N[C@@H](CO)C(=O)O[C@@H]1C (mixture of isomers)

1. 8
2. 8
3. 128

# credit: ChEMBL document CHEMBL5512645
